Origin of measurements: paper PMC7327142

Reported Cytotoxicity against HEK cells is given for each of the following compounds.
- Test system: HEK293 cells
- applied conditions: 20 µM, 25 h
Kindly provide the number alone.

Known results for compounds:
COC(=O)c1c(NC(=O)C2CCCO2)c2cc(NCc3cccc(OCCO)c3)cnc2n1CCc1ccccc1 (stereo not drawn) [Compound 69]	0.529
COc1cccc(N2CC(C(=O)NCCS(=O)(=O)N3CCc4ccccc4C3)CC2=O)c1 (stereo not drawn) [Compound 77]	0.578
O=C(CCCN1C(=O)c2ccccc2C1=O)Nc1ccc2ccccc2c1 [Compound 4]	0.603
O=C(CCCc1ccccc1)Nc1cccc(N2CCC(NCc3cccnc3)CC2)c1 [Compound 33]	0.588
Cc1ccc(N2CC(C(=O)NCCS(=O)(=O)N3CCc4ccccc4C3)CC2=O)cc1 (stereo not drawn) [Compound 75]	0.604
CN(Cc1ccc(OCCN2CCN(C(=O)C3Cc4ccccc4O3)CC2)cc1)Cc1ccc2ncccc2c1 (stereo not drawn) [Compound 60]	0.572
Cn1cc(C(=O)N2CCN(CCOc3ccc(CN4CCC(Cc5ccccc5)CC4)cc3)CC2)c(=O)c2ccccc21 [Compound 58]	0.602
O=C(Nc1cccc(N2CCC(NCCC(c3ccc(F)cc3)c3ccco3)CC2)c1)c1ccncc1 (stereo not drawn) [Compound 61]	0.173

Enquiry: Param readout = Cytotoxicity against HEK cells; param system = HEK293 cells; param query = COCc1ccc(C(=O)NCc2nc(-c3cccc(NC(=O)C4CCCN(C)C4)c3)oc2C)s1 (stereo not drawn) [Compound 26] ; response: value
Return: 0.587

Enquiry: Param readout = Cytotoxicity against HEK cells; param system = HEK293 cells; param query = O=C(NCCS(=O)(=O)N1CCN(c2ccc(F)cc2)CC1)C1CC(=O)N(c2ccccc2)C1 (stereo not drawn) [Compound 78] ; response: value
Return: 0.574

Enquiry: Param readout = Cytotoxicity against HEK cells; param system = HEK293 cells; param query = O=C(NCCS(=O)(=O)N1CCc2ccccc2C1)C1CC(=O)N(c2ccc(Cl)cc2)C1 (stereo not drawn) [Compound 74] ; response: value
Return: 0.568

Enquiry: Param readout = Cytotoxicity against HEK cells; param system = HEK293 cells; param query = O=C(c1cc(-c2ccc(F)cc2)n[nH]1)N1CCC(Cc2ccc(CO)cc2)C1 (stereo not drawn) [Compound 22] ; response: value
Return: 0.596

----------
- Tested on: HEK293 cells
- applied conditions: 20 µM, 25 h
measure name: Cytotoxicity against HEK cells

CC(C)(O)C#Cc1ccc(C(=O)N2CCCC(CCC(=O)NCc3ccccc3F)C2)cc1 (stereo not drawn)	0.580
Cc1ccc(N2CC(C(=O)NCCS(=O)(=O)N3CCc4ccccc4C3)CC2=O)cc1C (stereo not drawn)	0.520

Please turn your attention to the following entry.
Enquiry: Reported Cytotoxicity against HEK cells for O=C(C1CCCN(c2cccc3c2C(=O)N(Cc2ccsc2)C3=O)C1)N1CCC(O)(c2cccc(C(F)(F)F)c2)CC1 (stereo not drawn) : what is it?
Return: 0.602
